The measurements presented in this section are drawn from ChEMBL document CHEMBL5346943.

# test.description: Antiproliferative activity against human RBE cells incubated for 72 hrs by Cell counting kit 8 method
# Type: functional, cell-based
measured.attribute: IC50 (nM)
// units = nM; emit number, no label

Quick one: IC50 for `C=CC(=O)N1CCC(c2cc3c(Oc4ccc(NC(=O)NC5CC5)c(Cl)c4)ccnc3cc2OC)CC1` ?
357

====

# test.description: Cmax in Sprague-Dawley rat measured at 30 mg/kg, po for 0.083 to 24 hrs by LC-MS/MS analysis
# Format: ADME, organism-based
# Set-up: dose 30 mg/kg, time upper 24 hrs, time lower 0.083 hrs, route po
# details: in vivo
measured.attribute: Cmax (ng/mL)
Return type: number; implicit unit ng/mL.

Return reported Cmax; argument: `C=CC(=O)N1CCC(c2cc3c(Oc4ccc(NC(=O)NC5CC5)c(Cl)c4)ccnc3cc2OC)CC1`
6070
